assayed.system: T1, PUF4 RNA-binding domain (Saccharomyces cerevisiae, UniProt P25339 537-888)
T1 sequence: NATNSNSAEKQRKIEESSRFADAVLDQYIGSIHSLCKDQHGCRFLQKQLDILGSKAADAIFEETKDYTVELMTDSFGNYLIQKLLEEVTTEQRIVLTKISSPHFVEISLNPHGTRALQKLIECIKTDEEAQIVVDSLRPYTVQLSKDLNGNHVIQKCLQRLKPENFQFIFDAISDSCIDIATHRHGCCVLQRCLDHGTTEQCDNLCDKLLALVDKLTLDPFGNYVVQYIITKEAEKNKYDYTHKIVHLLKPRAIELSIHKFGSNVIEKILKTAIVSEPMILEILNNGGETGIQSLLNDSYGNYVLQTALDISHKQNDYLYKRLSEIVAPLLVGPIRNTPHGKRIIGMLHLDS
experimental.details: Mg; RNA-MaP; 20 mM Na-HEPES pH 7.4, 30 mM KOAc, 0.75 mM MgCl2, 0.1% Tween-20, 5% glycerol, 0.1 mg/mL BSA, 2 mM DTT; 25 C; 0.0125-409.6 nM protein
run.conditions: tags: N-His6-TEV cleaved; C-SNAP kept, Cy3B-labelled; label: tethered on chip by stalled RNA polymerase
quantity.kind: pKd
Just so you know, pKd here is -log10 of the concentration in molar units; reply with that number alone.

*Q* Any idea what pKd was measured for UCUCUUUGUAUUUAGUCUCUU (ssRNA) [Ic_S1_P4E.1_K4.1_C4.1_H4.1_A4.1_[A6T]_F4.1_[T8A]_[A9G]_T4.1] ?
*A* 7.60

*Q* Also, Id_ii_S2_P3E.2_K3.1_C3.2_[C-2T]_H3.1_A3.1_F3.1_T3.2_[A10C] (ssRNA) RNA: UUUGAUUAAUAUGAUAUCGUUCUUUCUUUUGUAUAUAUCUUCUUUCUCGAUAUCAUAUUAAUCUUU please.
*A* 8.81

*Q* Also, Ic_S4_P4E.1_K4.1_C4.1_H4.1_A4.1_[T5C]_[A6C]_F4.1_[A9T]_T4.1 (ssRNA) RNA: UUUGACAACUGAUCGUUCUUUCUUGUACCUUUUUCUUUCUCGAUCAGUUGUCUUU please.
*A* 7.97

*Q* Also, Id_ii_S4_P3E.3_K3.2_C3.2_[C-2A]_[T-1C]_H3.2_A3.1_F3.1_T3.2_[T9C]_[A10C] (ssRNA) RNA: UUUGACAACUGAUCGUUCUUUCUACUAUAUAUACCUUCUUUCUCGAUCAGUUGUCUUU please.
*A* 6.73

*Q* Also, UCUCUUUGUAUCCGUGUCUCUU (ssRNA) [Ic_S1_P5E.1_K5.1_C5.1_H5.1_A5.1_[T6C]_[A7C]_F5.1_[T8G]_[A10G]_T5.1] please.
*A* 5.98

*Q* Also, UCUCUUUGUAUAAUCAUCUCUU (ssRNA) [Ic_S1_P5E.1_K5.1_C5.1_H5.1_A5.1_[T6A]_F5.1_[T9C]_T5.1] please.
*A* 7.71
